# Tested on: SW-620 colon
# measurement-description: NCI tumour cell line growth inhibition, 48 h
Would you kindly list TGI for each of these compounds?

Fill in: TGI of O=C1CS(=O)(=O)C(c2cccc(Oc3ccccc3)c2)N1c1ccccc1 (configuration not stated) is ___
> 100 µM

"CN(CC(=O)O)Cc1oc(CO)cc(=O)c1O" ?
> 100 µM

"Cc1ccc(S(=O)(=O)n2ccc(-c3ccc4ccn(S(=O)(=O)c5ccc(C)cc5)c4c3)c2)cc1" ?
> 100 µM

"CN[C@@H](C)[C@@H](O)c1ccccc1" ?
> 100 µM

"COc1cc(F)c(/C=C/c2cc(/C=C/c3cc(OC)c(OC)cc3F)n(-c3cc(F)cc(F)c3)n2)cc1OC" ?
5.86 µM

"CCc1ccc2nccc(NCCCN(C)C)c2c1[N+](=O)[O-]" ?
> 100 µM

"O=[N+]([O-])c1cccc(Cl)c1Oc1ccc(S(=O)(=O)/N=C(\NO)Nc2ccc(Cl)cc2)cc1" ?
30.3 µM

"COc1cccc(CCC(=O)c2cc3c(N)c(C(=O)Nc4cccc(Cl)c4C)sc3nc2C)c1" ?
> 100 µM

"Cn1ccnc1CCc1ccc(Cl)c(Cl)c1" ?
> 100 µM

"CN(C)c1ccc(/C=C/C(=O)O)cc1" ?
> 100 µM

"CC(C)C[C@H](NC(=O)CCn1ccc2ncccc2c1=O)B(O)O" ?
> 45.9 µM

"COc1ccc2c(c1)c(-c1ccc(-c3cn(C)c4ccc(OC)cc34)[nH]1)cn2C" ?
5.86 µM

"CCN(CC)CCn1c2ccc(OC)cc2c2sc3cc(OC)ccc3c(=O)c21" ?
2.41 µM

"CN(C)CCSCCO" ?
> 100 µM

O=C(O)CNC(=O)c1ccc2cc(C(=O)N3CC(CCl)c4ccc([N+](=O)[O-])cc43)[nH]c2c1 (configuration not stated) ?
> 100 µM

OCC(CCc1c[nH]c2ccccc12)c1c[nH]c2ccccc12 (configuration not stated) ?
29.4 µM

Nc1nccc2c1ncn2C1OC(CO)C(O)C1O (configuration not stated) ?
> 100 µM

COc1ccc(C2SCC(=O)N2NC(=O)C(C)Oc2ccccc2C)cc1 (configuration not stated) ?
> 100 µM

"Nc1ccc2ccc(-c3ccc[nH]3)nc2n1" ?
> 100 µM

COC(=O)[C@]12CC[C@@H](C)[C@H](C)[C@@H]1C1=CC[C@@H]3[C@@]4(C)C(C=O)=C[C@@](C)(COS(C)(=O)=O)C4[C@H](O)C[C@@]3(C)[C@]1(C)CC2 (some centres not stated) ?
5.7 µM

"COc1cc(/C=C\c2ccc(Br)cc2)cc(OC)c1OC" ?
> 100 µM

COC1(c2cccs2)c2ccccc2C(OC)(c2cccs2)c2ccccc21 (configuration not stated) ?
> 100 µM

COc1cc(C2CC(=O)Nc3c2ccc2ccccc32)cc(Br)c1OC (configuration not stated) ?
> 100 µM

"COc1ccc(CNc2nc3cc(C(F)(F)F)ccc3nc2-c2ccccc2)cc1OC" ?
> 100 µM

"CC(=O)[O-].[Zn].c1ccc(/C(=N\Nc2ccccn2)c2ccccn2)cc1" ?
1.63 µM

"O=C(C(Cl)=C(N1CCCCC1)N1CCCCC1)C(Cl)Cl" ?
> 100 µM

"c1csc(-c2ccsc2-c2ccsc2)c1" ?
> 100 µM

"O=[N+]([O-])c1ccc([N+]2=NC(c3ccccc3)=NN(c3ccccc3)C2)cc1" ?
> 100 µM

O=[N+]([O-])c1ccc(N2N=C(c3ccc4ccccc4c3O)CC2c2ccc(Cl)cc2)c([N+](=O)[O-])c1 (configuration not stated) ?
> 100 µM

Cc1c(O)c(OC2OC(CO)C(O)C(O)C2O)cc2c1C=C[C@@H]1[C@@]2(C)C(=O)C[C@]2(C)[C@@H]([C@@](C)(O)C(=O)CCC(C)(C)O)[C@H](O)C[C@@]12C (some centres not stated) ?
79.9 µM

CC(=O)OCC12CCC3C4(C)CCCC(C)(C)C4CCC3(C)C1CC(C1=CC(=O)OC1O)O2 (configuration not stated) ?
6.47 µM

CCOC(=O)N1C(c2ccccc2)C=CC(c2ccccc2)N1C(=O)OCC (configuration not stated) ?
> 100 µM

"O=C1/C(=C/c2ccccc2)NC(=S)N1CN1CCCCC1" ?
> 100 µM

CCOC(=O)C(NC(=O)CC)(Nc1ccc(F)c(Cl)c1)C(F)(F)F (configuration not stated) ?
> 100 µM

"COc1cc2c3c(n(CCCBr)c(=O)c2cc1OC)-c1ccc(F)cc1C3=O" ?
> 100 µM

COP(=O)(O)C(N)Cc1c[nH]c2ccccc12 (configuration not stated) ?
> 100 µM

"CC1=CCC[C@H]2[C@](C)(CC3=CC(=O)C(Sc4ccccc4)=CC3=O)[C@@H](C)CC[C@]12C" ?
30.5 µM

"O=C(N/C(=C\c1ccc(/C=C(\NC(=O)c2ccccc2)c2nc3ccccc3s2)cc1)c1nc2ccccc2s1)c1ccccc1" ?
14.8 µM

"FC(F)(F)c1cccc2c(SCCc3n[nH]c(=S)o3)ccnc12" ?
> 100 µM

"S=c1sc2cscc2s1" ?
41.1 µM

COC12CCC(C(C(=O)c3ccccc3)=C1C(=O)c1ccccc1)C(O)C2 (configuration not stated) ?
> 100 µM

"O=C(N/N=C(/COc1ccccc1Cl)N=Cc1ccncc1)c1ccncc1" ?
> 100 µM

Hello, the source for this data is PubChem BioAssay (NCI), in case you need it.
